Please respond with reported IC50, Jurkat NFAT-Luc T cell activation for every item in the list.
# TESTED_ON: DQ2.5/alpha 2 gliadin peptide on IHW9023 cells (human)
# TEST_METHOD_NOTES: cell-based or functional assay
Respond with the bare value in ng/mL.

Problem: Need IC50, Jurkat NFAT-Luc T cell activation of DQN0385ee (antibody, V domains shown, also called DQN0385xx) VH: QEQLEESGGDLVKPGASLTLTCTASGFSFYSSYWICWVRQAPGKGLEWIACIDTGSGSIDYASWVNGRFTISKTSSTTVTLQMTSLTVADTATYFCARDIGIDYNFWGPGTLVTVSS VL: AFELTQTPSFVEAAVGGTVTIKCQATQSISSYLNWYQQKPGQPPKLLIYYASTLASGVPSRFKGSGSGTEFSLTISGVECADAATYYCHYGISYVSFGGGTKVEIK , thanks.
Result: 0.264

Problem: Need IC50, Jurkat NFAT-Luc T cell activation of DQN0429cc (antibody, V domains shown, also called DQN0492cc) VH: QEQLVESGGGLVQPEGSLTLTCTASGFSFSSSYYMCWVRQAPGKGLEWIGCIYTGSGSTDYATWVNGRFTISKTSSTTVTLQMTSLTVADTATYFCARDIGIDYNFWGPGTLVTVSS VL: AFELTQTPSFVEARVGGTVTIKCQATQSISSYLNWYQQKPGQPPKLLIYYASTLASGVPSRFKGSGSGTEFTLTISGVECADAATYYCHYGISYVSFGGGTKVEIK , thanks.
Result: 4.97

Problem: Need IC50, Jurkat NFAT-Luc T cell activation of DQN0139bb (antibody, V domains shown) VH: QSLEESGGRLVTPGTALTLTCTVSGFSLSSYAMGWVRQAPGKGLEYIGWTSPGDSAYYASWTKGRFTISRTSTTVELKITSPTTEDTATYFCARDAAYIGHWAFNLWGPGTLVTVSS VL: DVVMTQTPASVSAPVGGTVTINCQASESIYSNLAWYQQKPGQPPKLLIYGASTLESGVPSRVKGSGYGTQFTLTISDLECADAATYYCQQYYGSSSTAFTFGGGTKVEIK , thanks.
Result: 60.5

Problem: Need IC50, Jurkat NFAT-Luc T cell activation of DQN0344xx (antibody, V domains shown) VH: QSLEESGGGLVKPGGTLTLTCTASGFSFSSSYWMCWVRQAPGKGLEWVACVYGGSDTTYYASWTKGRFTISKGSSTTVALQVTSLTAADTATYFCARDPLNYYYYGELNLWGPGTLVTVSS VL: AVVLTQTASPVSAAVGGTVTIRCQATENIYSGLAWYQQKPGQPPKVLIYYVSTLASGVPSRFKGSGSGTEYTLTISGVQCDDAATYYCQTYHDISNVTFGGGTKVEIK , thanks.
Result: 0.82
